Target: Left-right determination factor 2 (Homo sapiens)
Test: LEFTY2 binders on small-molecule microarrays, primary screen, biochemical, small-molecule microarray, 635 nm fluorescence scan (AID 1110)
Settings: LEFTY2 binding, higher = more signal
Each item that follows carries a reported composite z-score.
The answer should be written as a number, with no unit following it.

So, "C=C/C=C/[C@H]1C(=C)CN([C@@H](Cc2ccccc2)C(=O)OC)[C@@H]1[C@H](O)Cc1ccccc1" ? Its composite z-score was -1.09

So, "C=CCOC(=O)[C@H]1[C@@H]2C(=O)O[C@@H](c3ccccc3)[C@@H](c3ccccc3)N2[C@@H](c2ccc(OCCOC(=O)[C@H]3C[C@H]4C(=O)N5CCC[C@H]5C(=O)N4[C@H]3c3ccc(O)cc3)cc2)[C@]12C(=O)Nc1ccc(I)cc12" ? Its composite z-score was 1.52

// moving on: another record for composite z-score
So, "C=CCNC(=O)[C@H]1[C@@H]2C(=O)O[C@@H](c3ccccc3)[C@@H](c3ccccc3)N2[C@@H](c2ccc(OCCO)cc2)[C@]12C(=O)Nc1ccc(C#CC3=CCCCC3)cc12" ? Its composite z-score was 0.477
